# Study Target: Gonadotropin-releasing hormone receptor (Rattus norvegicus) (UniProt P30969)
# Sequence (whole entry): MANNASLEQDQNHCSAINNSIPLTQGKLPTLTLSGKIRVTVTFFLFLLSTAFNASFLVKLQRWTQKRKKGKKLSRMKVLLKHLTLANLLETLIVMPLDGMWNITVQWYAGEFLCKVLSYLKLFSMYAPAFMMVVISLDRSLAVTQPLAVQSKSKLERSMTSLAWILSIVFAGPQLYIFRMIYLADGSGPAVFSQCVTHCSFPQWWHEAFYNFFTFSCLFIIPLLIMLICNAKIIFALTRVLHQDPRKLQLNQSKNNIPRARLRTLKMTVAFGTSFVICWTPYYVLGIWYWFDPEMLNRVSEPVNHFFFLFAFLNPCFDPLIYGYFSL
# Experiment Summary: Antagonist activity at LH-RH receptor in Sprague-Dawley rat pituitary gland assessed as change in LH-RH-induced luteinizing hormone release at 10 ug/ml preincubated for 2 hrs followed by LH-RH addition at 5th and 6th hr 5 mins post drug addition and measured every hour for 4 hrs by RIA
Square brackets hold non-standard residues; d marks the D form. Peptide text beside a SMILES is read from it. pGlu = O=C1CC[C@@H](C(=O)O)N1

| Compound | Readout Unit | Activity |
| --- | --- | --- |
| CC(C)C[C@H](NC(=O)CNC(=O)[C@H](Cc1ccc(O)cc1)NC(=O)[C@H](CO)NC(=O)[C@H](CO)NC(=O)[C@H](CC(C)C)NC(=O)[C@@H]1CCC(=O)N1)C(=O)N[C@@H](CCCNC(=N)N)C(=O)N1CCC[C@H]1C(=O)NCC(N)=O ([pGlu]LSSYGLRPG-NH2) | ng/mL | 88 |
| CC(C)C[C@H](NC(=O)[C@@H]1CCC(=O)N1)C(=O)N[C@@H](C)C(=O)N[C@@H](CO)C(=O)N[C@@H](Cc1ccc(O)cc1)C(=O)N[C@H](C)C(=O)N[C@@H](CC(C)C)C(=O)N[C@@H](CCCNC(=N)N)C(=O)N1CCC[C@H]1C(=O)NCC(N)=O | ng/mL | 149 |
| CCNC(=O)[C@@H]1CCCN1C(=O)[C@H](CCCNC(=N)N)NC(=O)[C@H](CC(C)C)NC(=O)[C@@H](C)NC(=O)[C@H](Cc1ccc(O)cc1)NC(=O)[C@H](CO)NC(=O)[C@H](C)NC(=O)[C@H](CC)NC(=O)[C@@H]1CCC(=O)N1 | ng/mL | 56 |
| CC(C)C[C@H](NC(=O)CNC(=O)[C@H](Cc1ccc(O)cc1)NC(=O)[C@H](CO)NC(=O)[C@H](CC(C)C)NC(=O)[C@@H](NC(=O)[C@@H]1CCC(=O)N1)[C@@H](C)O)C(=O)N[C@@H](CCCNC(=N)N)C(=O)N1CCC[C@H]1C(=O)NCC(N)=O ([pGlu]TLSYGLRPG-NH2) | ng/mL | 180 |
